Target: T1, human BLyS (full length, arginine to histidine at position 132) on CHO-K1 cells (human, UniProt Q9Y275 1-285)
T1 construct: also called hBLyS; CHO-K1 hBLyS
T1 sequence (Q9Y275 whole entry R130H): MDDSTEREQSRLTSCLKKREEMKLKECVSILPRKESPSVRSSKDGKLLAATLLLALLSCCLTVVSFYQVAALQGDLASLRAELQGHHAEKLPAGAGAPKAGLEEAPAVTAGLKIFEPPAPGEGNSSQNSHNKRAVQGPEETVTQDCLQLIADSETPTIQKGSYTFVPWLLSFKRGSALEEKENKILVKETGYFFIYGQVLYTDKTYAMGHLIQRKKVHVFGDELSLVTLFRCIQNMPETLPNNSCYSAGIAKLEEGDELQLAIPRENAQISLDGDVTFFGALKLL
Assay: flow cytometry, CHO-K1 hBLyS cells, antibody 13.3 nM
Endpoint: MFI (MFI)
The figure you give is taken to be in MFI; do not add the unit.

INSERT INTO results (binder, endpoint, quantitative_result) VALUES
  ('89A2G5E7 (antibody, V domains shown, Mouse hybridoma monoclonal antibody purified on Protein G) VH: QVQLKESGPGLVAPSQSLSITCTVSGLSLNSHDISWIRQPPGKGLEWLGVIWSGGGTKYNSAFMSRLSISKDNSKSQVFLKMNSLHTDDTAIYYCVRTPSMITYSAMDYWGQGTSVTVSS VL: EIVLTQSPALMAASPGEKVTITCSVSSSISSRNLHWYQQKSQTSPKAWIHATSNLASGVPVRFSGSGSGTSYSLTISSMEAEDAATYYCQQWSSYPLTFGSGTKLEIK', 'MFI', 406);

Lookup: Could you please provide reported MFI for L9G7 (antibody, V domains shown, From a human naive scFv phage library; also called human BLyS antibody L9G7) VH: QIQLVQSGAEVKKPGASVKVSCKASGYTFTSYGISWVRQAPGQGLEWMGWISAYNGNTNYAQKLQGRVTMTTDTSTSTAYMELRSLRSDDTAVYYCARTYYDILTGYYYYGMDVWGQGTTVTVSS VL: EIVLTQSPGTLSLSPGERATLSCRTSQSVDTYLAWYQQKPGQAPRLLIYDASNRATGIPARFSGSGSGTDFTLTISSLEPEDFAVYYCQQRSNWPLTFGGGTKVEIK ? Thanks!
Found: 630

Lookup: Could you please provide reported MFI for L1D12 (antibody, V domains shown, From a human naive scFv phage library; also called human BLyS antibody L1D12; LID12) VH: QVQLVQSGGGLVQPGGSLRLSCAASGFTVSSNYMSWVRQAPGKGLEWVSVIYSGGSTYYADSVKGRFTISRDNSKNTLYLQMNSLRAEDTAVYYCARGFHDILTGYGMDVWGQGTTVTVSS VL: SSELTQDPAVSVALGQTVRITCQGDSLRNYYAGWYQQKPGQAPVLVIYGKNNRPSGIPDRFSGSSSGNTASLTITGTQAEDEADYYCSSRDNSGTHLVEFGGGTKLTVL ? Thanks!
Found: 522

The reported numbers originate from patent US20210347873A1.
